System: WSU-NHL (B-Cell Non-Hodgkin's Lymphoma)
Test: combination Emax (second highest fraction inhibited in the dose matrix, 72 h); higher = more inhibition; extreme values may be limits of the assay
measurement-type: combination Emax
One number for each entry.

Example cases with answers are listed next.
CC(=O)c1c(C)c2cnc(Nc3ccc(N4CCNCC4)cn3)nc2n(C2CCCC2)c1=O [Palbociclib] + Cc1c2c(nn1C)CSCc1cc(n(C)n1)CSc1cc(c3ccccc3c1)OCCCc1c(C(=O)O)n(C)c3c-2c(Cl)ccc13 [AZD5991] (first compound max 10 µM, 7x7, partner max 1 µM)	0.928
NC1(C(=O)N[C@@H](CCO)c2ccc(Cl)cc2)CCN(c2ncnc3[nH]ccc23)CC1 [Capivasertib] + CC(C)n1c(=O)n(C)c2cnc3cc(F)c(-c4ccc(OCCCN5CCCCC5)nc4)cc3c21 [AZD1390] (first compound max 10 µM, 7x7, partner max 0.3 µM)	0.882

// below: combination Emax requested for another compound
For WSU-NHL (B-Cell Non-Hodgkin's Lymphoma), provide combination Emax of CC1(C)CCC(CN2CCN(c3ccc(C(=O)NS(=O)(=O)c4ccc(NCC5CCOCC5)c([N+](=O)[O-])c4)c(Oc4cnc5[nH]ccc5c4)c3)CC2)=C(c2ccc(Cl)cc2)C1 [Venetoclax] + C=CCn1c(=O)c2cnc(Nc3ccc(N4CCN(C)CC4)cc3)nc2n1-c1cccc(C(C)(C)O)n1 [AZD1775] (first compound max 1 µM, partner max 1 µM) please.
0.985

---

Task for the reader: assign each of the following compounds its reported combination Emax.
Test system: ALL-PO (B-Lymphoblastic Leukemia)
Experiment: combination Emax (second highest fraction inhibited in the dose matrix, 72 h); higher = more inhibition; extreme values may be limits of the assay

Example cases with answers are listed next.
CC1(C)CCC(CN2CCN(c3ccc(C(=O)NS(=O)(=O)c4ccc(NCC5CCOCC5)c([N+](=O)[O-])c4)c(Oc4cnc5[nH]ccc5c4)c3)CC2)=C(c2ccc(Cl)cc2)C1 [Venetoclax] + C1CN(CCC1(C(=O)N[C@@H](CCO)C2=CC=C(C=C2)Cl)N)C3=NC=NC4=C3C=CN4 [Capivasertib] (first compound max 1 µM, 7x7, partner max 3 µM)	0.669
CC(=O)c1c(C)c2cnc(Nc3ccc(N4CCNCC4)cn3)nc2n(C2CCCC2)c1=O [Palbociclib] + CN(CC[C@H](CSC1=CC=CC=C1)NC2=C(C=C(C=C2)S(=O)(=O)NC(=O)C3=CC=C(C=C3)N4CCC(CC4)[C@H](C5=CC=CC=C5C6=CC=C(C=C6)Cl)O)S(=O)(=O)C(F)(F)F)CCO [AZD4320] (first compound max 10 µM, 7x7, partner max 1 µM)	1
CC1(C)CCC(CN2CCN(c3ccc(C(=O)NS(=O)(=O)c4ccc(NCC5CCOCC5)c([N+](=O)[O-])c4)c(Oc4cnc5[nH]ccc5c4)c3)CC2)=C(c2ccc(Cl)cc2)C1 [Venetoclax] + C[C@@H](Nc1cc(F)cc(F)c1)c1cc(C(=O)N(C)C)cc2c(=O)cc(N3CCOCC3)oc12 [AZD8186] (first compound max 1 µM, 7x7, partner max 3 µM)	0.703
Cc1c2c(nn1C)CSCc1cc(n(C)n1)CSc1cc(c3ccccc3c1)OCCCc1c(C(=O)O)n(C)c3c-2c(Cl)ccc13 [AZD5991] + CCN(CCO)CCCOc1ccc2c(Nc3cc(CC(=O)Nc4cccc(F)c4)[nH]n3)ncnc2c1 [AZD2811] (first compound max 1 µM, 7x7, partner max 1 µM)	1

Please give combination Emax, item by item, for the list that follows.
1. C[C@@H](c1ccc2nccn2c1)n1nnc2ncc(-c3cnn(C)c3)nc21 [Savolitinib] + CN(CC[C@H](CSC1=CC=CC=C1)NC2=C(C=C(C=C2)S(=O)(=O)NC(=O)C3=CC=C(C=C3)N4CCC(CC4)[C@H](C5=CC=CC=C5C6=CC=C(C=C6)Cl)O)S(=O)(=O)C(F)(F)F)CCO [AZD4320] (first compound max 1 µM, 7x7, partner max 1 µM)
2. Cn1cnc2c(F)c(Nc3ccc(Br)cc3Cl)c(C(=O)NOCCO)cc21 [Selumetinib] + C=CCn1c(=O)c2cnc(Nc3ccc(N4CCN(C)CC4)cc3)nc2n1-c1cccc(C(C)(C)O)n1 [AZD1775] (first compound max 10 µM, partner max 1 µM)
3. CN(CCO)CC[C@H](CSc1ccccc1)Nc1ccc(S(=O)(=O)NC(=O)c2ccc(N3CCC([C@@H](O)c4ccccc4-c4ccc(Cl)cc4)CC3)cc2)cc1S(=O)(=O)C(F)(F)F [AZD4320] + Cc1cc2ncnn2cc1Nc1ncc2c(n1)n(C1CCOCC1)c(=O)n2C [AZD7648] (first compound max 1 µM, 7x7, partner max 10 µM)

1. 0.989
2. 0.978
3. 0.992

Please give combination Emax, item by item, for the list that follows.
1. CN(C)CCCOc1ccc(-c2ccc3ncc4c(c3c2)n(C2CCOCC2)c(=O)n4C)cn1 [AZD0156] + C[C@@H]1COCCN1C2=NC(=NC(=C2)C3(CC3)[S@](=N)(=O)C)C4=C5C=CNC5=NC=C4 [AZD6738] (first compound max 1 µM, 7x7, partner max 10 µM)
2. C[C@@H]1COCCN1c1cc(C2([S@](C)(=N)=O)CC2)nc(-c2ccnc3[nH]ccc23)n1 [AZD6738] + O=C(c1cc(Cc2n[nH]c(=O)c3ccccc23)ccc1F)N1CCN(C(=O)C2CC2)CC1 [Olaparib] (first compound max 10 µM, 7x7, partner max 10 µM)
3. Cc1cc2ncnn2cc1Nc1ncc2c(n1)n(C1CCOCC1)c(=O)n2C [AZD7648] + CN(C)CCCOc1ccc(-c2ccc3ncc4c(c3c2)n(C2CCOCC2)c(=O)n4C)cn1 [AZD0156] (first compound max 10 µM, 7x7, partner max 1 µM)
4. NC1(C(=O)N[C@@H](CCO)c2ccc(Cl)cc2)CCN(c2ncnc3[nH]ccc23)CC1 [Capivasertib] + C[C@@H]1COCCN1C2=NC(=NC(=C2)C3(CC3)[S@](=N)(=O)C)C4=C5C=CNC5=NC=C4 [AZD6738] (first compound max 10 µM, 7x7, partner max 10 µM)
5. COc1cccc(OCCCN)c1-c1cc(Nc2cnc(C#N)cn2)n[nH]1 [Prexasertib] + C[C@@H]1COCCN1C2=NC(=NC(=C2)C3(CC3)[S@](=N)(=O)C)C4=C5C=CNC5=NC=C4 [AZD6738] (first compound max 1 µM, 7x7, partner max 10 µM)
6. Cc1cc2ncnn2cc1Nc1ncc2c(n1)n(C1CCOCC1)c(=O)n2C [AZD7648] + C[C@@H]1COCCN1C2=NC(=NC(=C2)C3(CC3)[S@](=N)(=O)C)C4=C5C=CNC5=NC=C4 [AZD6738] (first compound max 10 µM, 7x7, partner max 10 µM)

[0.922, 0.955, 0.265, 0.99, 0.982, 0.925]
